# PROTOCOL NOTES: DPPH radical scavenging assay
# Format: biochemical
# CONDITION SUMMARY: 30 min in the dark, absorbance 517 nm
So I've got a bunch of molecules here, and I need their IC50 values.
// return numeric value only (unit: µM, not printed)

If you can, please state the reported IC50 value of COc1c2c(cc3oc(=O)ccc13)OC(C)(C)C=C2 . 247

Same thing, different molecule: Cc1c(C)c2c(c(C)c1O)CCC(C)(C(=O)O)O2 (centres unmarked) [Trolox, reference compound] 16.8

Try the molecule CC(C)=CCc1c(O)c(C=O)cc2c1[nH]c1ccccc12 335

Now the molecule C=CC(C)(C)c1c2c(c(O)c3ccc(=O)oc13)C=CC(C)(C)O2 38.3

Next record, please: COc1ccc2c(c1)[nH]c1cc(O)c(C=O)cc12 26.2

Again, but for COc1ccc2c(c1)[nH]c1c(CC=C(C)C)c(O)c(C=O)cc12 313

Would you mind doing C=CC(C)(C)c1cc2c(O)c3c(c(C(C)(C)C=C)c2oc1=O)OC(C)(C)C=C3 as well? 6
